- Assay Target: cytochrome P450 2C9 (Homo sapiens)
- Sequence (P11712 whole entry): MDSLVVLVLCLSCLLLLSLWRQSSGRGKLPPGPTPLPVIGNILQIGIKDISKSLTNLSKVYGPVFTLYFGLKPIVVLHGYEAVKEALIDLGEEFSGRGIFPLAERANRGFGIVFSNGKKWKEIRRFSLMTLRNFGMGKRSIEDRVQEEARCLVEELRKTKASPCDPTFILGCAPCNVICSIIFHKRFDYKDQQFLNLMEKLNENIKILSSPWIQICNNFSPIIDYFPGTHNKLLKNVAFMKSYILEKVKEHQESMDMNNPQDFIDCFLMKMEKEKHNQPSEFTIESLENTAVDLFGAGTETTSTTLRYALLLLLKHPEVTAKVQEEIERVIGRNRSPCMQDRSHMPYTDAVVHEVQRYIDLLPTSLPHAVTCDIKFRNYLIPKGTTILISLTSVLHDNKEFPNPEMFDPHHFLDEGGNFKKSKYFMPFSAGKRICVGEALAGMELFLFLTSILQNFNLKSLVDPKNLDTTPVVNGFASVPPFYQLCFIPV
- Experimental Protocol: Determining the cyp2C9 activity (O-demethylation of [O-methyl-14C]-naproxen)
- Condition Details: human recombinant cytochrome P450 2C9; 37° C.; <0.4 μM when inhibition >50% at lowest concentration; read-out: CYP 2C9 IC50
pIC50: −log10 of the molar value.
Experimental Readout: pIC50

>>> reading("COc1c(NC(=O)c2cc3cccc(CN4CCN(C(=O)CN5CCN(C(C)C)CC5)CC4)c3n2C)cc(C(C)(C)C)cc1NS(C)(=O)=O")
6.20

A. CCNC(=O)c1cc(C(C)(C)C)cc(NC(=O)c2cc3cccc(CN4CCN(C(=O)[C@@H]5CCCN5C)CC4)c3n2C)c1OC
B. COc1c(CN(C(C)C)C(C)C)cc(C(C)(C)C)cc1NC(=O)c1cc2cccc(CN3CCN(C(=O)[C@@H]4CCCN4C)CC3)c2n1C
Smaller pIC50 value? Options are A and B Record your answer as the label of the chosen record.
B
(B: 5.17, A: 6.34)

---

- Assay Target: p38 MAP-kinase (Homo sapiens, UniProt Q16539)
- Sequence (Q16539 whole entry): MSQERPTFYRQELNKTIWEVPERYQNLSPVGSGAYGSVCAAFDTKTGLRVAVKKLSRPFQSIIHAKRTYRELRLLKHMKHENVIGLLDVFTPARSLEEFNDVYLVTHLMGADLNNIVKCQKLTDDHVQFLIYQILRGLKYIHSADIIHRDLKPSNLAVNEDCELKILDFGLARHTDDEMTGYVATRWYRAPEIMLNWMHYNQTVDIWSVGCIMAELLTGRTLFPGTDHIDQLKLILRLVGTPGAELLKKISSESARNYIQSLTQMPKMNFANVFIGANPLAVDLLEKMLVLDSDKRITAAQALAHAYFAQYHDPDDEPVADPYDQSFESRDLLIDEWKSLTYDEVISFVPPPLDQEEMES
- Experimental Protocol: p38 MAP-kinase enzymatic assay (phosphorylation of GST-tagged ATF2, chemoluminescence)
- Assay type: biochemical
- Condition Details: inhibitor concentration 1 μM; activated p38 MAP-kinase 1 nM; ATP 100 μM; read-out: p38 (% Inh @ 1 μM)
Experimental Readout: inhibition at 1 µM (%)

>>> reading("COc1c(CN2CCC(N(C)C)CC2)cc(C(C)(C)C)cc1NC(=O)c1cc2cccc(CN3CCN(C(=O)[C@@H]4CCCN4C)CC3)c2n1C")
97.5
>>> reading("COc1c(NC(=O)c2cc3cccc(CN4CCN(C(=O)C5CC5)CC4)c3n2C)cc(C(C)(C)C)cc1NS(C)(=O)=O [Vc, reference compound]")
99.1
>>> reading("CNC(=O)c1cc(C(C)(C)C)cc(NC(=O)c2cc3cccc(CN4CCN(C(=O)[C@@H]5CCCN5C)CC4)c3n2C)c1OC")
99.3
>>> reading("COc1c(NC(=O)c2cc3cccc(CN4CCN(C(=O)[C@@H]5C[C@@H](O)CN5C)CC4)c3n2C)cc(C(C)(C)C)cc1NS(C)(=O)=O")
98.9
>>> reading("COc1c(NC(=O)c2cc3cccc(CN4CCN(C(=O)[C@@H]5CCCN5C)CC4)c3n2C)cc(C(C)(C)C)cc1C(=O)NC1CC1")
99.1
>>> reading("COc1c(NC(=O)c2cc3cccc(CN4CCN(C(=O)N5CC[C@@H](N(C)C)C5)CC4)c3n2C)cc(C(C)(C)C)cc1NS(C)(=O)=O")
99.1
>>> reading("COc1c(NC(=O)c2cc3cccc(CN4CCN(C(=O)[C@@H]5CCCN5C)CC4)c3n2C)cc(C(C)(C)C)cc1NS(=O)(=O)C1CC1")
99.3
>>> reading("COc1c(CS(C)(=O)=O)cc(C(C)(C)C)cc1NC(=O)c1cc2cccc(CN3CCN(C(=O)[C@@H]4CCCN4C)CC3)c2n1C")
99.6
>>> reading("COc1c(NC(=O)c2cc3cccc(CC4CCN(C(=O)[C@@H]5CCCN5C)CC4)c3n2C)cc(C(C)(C)C)cc1NS(C)(=O)=O")
98.9
>>> reading("COc1c(NC(=O)c2cc3cccc(CN4CCN(C(=O)[C@@H]5CCCN5C)CC4)c3n2C)cc(C(C)(C)C)cc1S(C)(=O)=O")
99.5
>>> reading("COc1c(NC(=O)c2cc3cccc(CN4CCN(C(=O)[C@@H]5CCCN5)CC4)c3n2C)cc(C(C)(C)C)cc1NS(C)(=O)=O")
99.2
>>> reading("COc1c(NC(=O)c2cc3cccc(CN4CCN(C(=O)C5CNC5)CC4)c3n2C)cc(C(C)(C)C)cc1NS(C)(=O)=O")
99
>>> reading("COc1c(NC(=O)c2cc3cccc(CN4CCC(C(=O)N5CCN(C)CC5)CC4)c3n2C)cc(C(C)(C)C)cc1NS(C)(=O)=O")
99.1
>>> reading("CCOc1c(NC(=O)c2cc3cccc(CN4CCN(C(=O)[C@@H]5CCCN5C)CC4)c3n2C)cc(C(C)(C)C)cc1NS(C)(=O)=O")
99.3
>>> reading("COc1c(CN2CCCC(N(C)C)C2)cc(C(C)(C)C)cc1NC(=O)c1cc2cccc(CN3CCN(C(=O)[C@@H]4CCCN4C)CC3)c2n1C (stereo partly drawn)")
98.9
>>> reading("COc1c(NC(=O)c2cc3cccc(CN4CCN(C(=O)CN5CCN(C(C)C)CC5)CC4)c3n2C)cc(C(C)(C)C)cc1NS(C)(=O)=O")
99.1
>>> reading("CCC(=O)Nc1cc(C(C)(C)C)cc(NC(=O)c2cc3cccc(CN4CCN(C(=O)[C@@H]5CCCN5C)CC4)c3n2C)c1OC")
97.9
>>> reading("COc1c(NC(=O)c2cc3cccc(CN4CCN(C(=O)[C@@H]5CCCN5C)CC4)c3n2C)cc(C(C)(C)C)cc1NC(=O)C(C)C")
97.3
>>> reading("COc1c(NC(=O)c2cc3cccc(CN4CCN(C(=O)CN5CCNCC5)CC4)c3n2C)cc(C(C)(C)C)cc1NS(C)(=O)=O")
98.7
>>> reading("CCNC(=O)c1cc(C(C)(C)C)cc(NC(=O)c2cc3cccc(CN4CCN(C(=O)[C@@H]5CCCN5C)CC4)c3n2C)c1OC")
99.4
>>> reading("COc1c(NC(=O)c2cc3cccc(CN4CCN(C(=O)[C@@H]5CCCN5C)CC4)c3n2C)cc(C(C)(C)C)cc1[S+](C)[O-] (stereo partly drawn)")
98.6
>>> reading("COc1c(NC(=O)c2cc3cccc(CN4CCN(C(=O)N5CC[C@H](N(C)C)C5)CC4)c3n2C)cc(C(C)(C)C)cc1NS(C)(=O)=O")
99
>>> reading("COc1c(CO)cc(C(C)(C)C)cc1NC(=O)c1cc2cccc(CN3CCN(C(=O)[C@@H]4CCCN4C)CC3)c2n1C")
99.4
>>> reading("COc1c(NC(=O)c2cc3cccc(CC4CCCN(C(=O)[C@@H]5CCCN5C)CC4)c3n2C)cc(C(C)(C)C)cc1NS(C)(=O)=O (stereo partly drawn)")
98
